These entries and their values trace back to patent US8962627B2.

Measured melting point, listed per entry.

Some compounds with recorded melting point:
Cl.ON=c1cc(-c2cc3cccn3cn2)oc2ccc(OCCN3CCCC3)cc12: > 260 °C (dec.)
COc1cccc2cnc(-c3cc(=NO)c4ccccc4o3)cc12: 245 to 247 °C

Attention now turns to another entry.
Ask: Would you mind telling me what melting point value was observed for Cl.ON=c1cc(-c2cc3sccc3cn2)oc2ccc(OCCN3CCOCC3)cc12 ?
Result: > 230 °C (dec.)

---

Biological target: human mGluR4 transiently over-expressed in HEK-293 cells (Homo sapiens, UniProt Q14833)
Sequence (Q14833 33-912): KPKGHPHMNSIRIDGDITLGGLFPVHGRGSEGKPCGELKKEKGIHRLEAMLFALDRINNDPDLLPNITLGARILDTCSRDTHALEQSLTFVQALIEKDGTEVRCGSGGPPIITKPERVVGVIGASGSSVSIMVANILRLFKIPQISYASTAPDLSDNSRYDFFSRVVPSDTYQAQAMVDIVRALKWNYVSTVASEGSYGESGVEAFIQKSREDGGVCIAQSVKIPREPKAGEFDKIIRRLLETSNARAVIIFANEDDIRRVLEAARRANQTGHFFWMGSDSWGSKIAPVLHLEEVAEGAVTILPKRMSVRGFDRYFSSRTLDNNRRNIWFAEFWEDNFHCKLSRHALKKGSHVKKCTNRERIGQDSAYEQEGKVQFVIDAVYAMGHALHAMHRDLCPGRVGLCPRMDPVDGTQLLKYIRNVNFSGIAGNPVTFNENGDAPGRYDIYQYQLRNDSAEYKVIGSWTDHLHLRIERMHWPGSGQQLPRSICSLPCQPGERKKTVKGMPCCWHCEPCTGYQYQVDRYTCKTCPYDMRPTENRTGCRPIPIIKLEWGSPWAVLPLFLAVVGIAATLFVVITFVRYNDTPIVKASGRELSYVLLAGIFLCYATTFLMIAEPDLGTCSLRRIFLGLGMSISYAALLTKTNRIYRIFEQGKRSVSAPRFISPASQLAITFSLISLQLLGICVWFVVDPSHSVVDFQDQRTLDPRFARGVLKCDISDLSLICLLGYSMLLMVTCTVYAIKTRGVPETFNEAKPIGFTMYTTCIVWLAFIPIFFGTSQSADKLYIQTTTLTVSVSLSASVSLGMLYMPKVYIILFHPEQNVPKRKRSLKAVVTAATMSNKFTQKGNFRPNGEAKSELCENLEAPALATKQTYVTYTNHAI
Test: Human mGluR4 positive allosteric modulator evaluation using Ca++ functional assay
Conditions: HEK-293 cells co-transfected with hmGluR4 and chimeric G protein; EC10 glutamate; intracellular calcium (Fluo4AM); read-out: mean EC50 of agonist/positive allosteric modulator activity on mGluR4
pEC50: −log10 of the molar value.
The following compounds are listed with their measured pEC50 values.

Ask: Dear colleague, I am looking for the recorded pEC50 of the following compound: Cl.ON=c1cc(-c2cc3cccn3cn2)oc2ccc(OCCCc3ccncc3)cc12 [Example 159, hydrochloride]
Result: > 6.00

Ask: Quick one: pEC50 of ON=c1cc(-c2cc3cccn3cn2)oc2ccc(OCCc3ccccc3)cc12 ?
Result: > 6.00

Ask: GET /values?readout=pEC50&item= CN1CCCN(CCOc2ccc3oc(-c4cc5cccn5cn4)cc(=NO)c3c2)CC1.Cl.Cl [Example 94, dihydrochloride]
Result: > 6.00

---

Structures can show the parent of a compound that is named as a salt.
measured_metric: melting point

Below are worked cases with known answers.
ON=c1cc(-c2cc3cccn3cn2)oc2ccc(OCCc3ccc(F)cc3)cc12 (as salt: hydrochloride) [Example 109]: 234 to 236 °C
CN(C)c1ccc(C#Cc2ccc3c(=NO)cc(-c4cc5ccccc5cn4)oc3c2)cc1 [Example 27]: 235 to 240 °C
Cl.ON=c1cc(-c2cc3cccn3cn2)oc2ccc(OCCc3ccncc3)cc12 [Example 136]: > 270 °C (dec.)
ON=c1cc(-c2cc3ccccc3cn2)oc2cc(-c3ccc(-c4ccccc4)cc3)ccc12 [Example 48]: 283 to 285 °C
COCCOc1cccc(C#Cc2ccc3c(=NO)cc(-c4cc5ccccc5cn4)oc3c2)c1 (mixture of isomers) [Example 53]: 155 to 160 °C

Ask: Suppose we examine the compound CN1CCN(CCCNc2ccc3c(=NO)cc(-c4cc5ccccc5cn4)oc3c2)CC1 [Example 49] ; what melting point value has been reported?
Result: 228 to 233 °C

Ask: Fill in: melting point of CN1CCN(CCOc2ccc3oc(-c4cc5cccn5cn4)cc(=NO)c3c2)CC1.Cl.Cl [Example 93] is ___
Result: > 230 °C (dec.)

Ask: Look up melting point: ON=c1cc(-c2cc3cccn3cn2)oc2ccc(OCCc3cccc(C(F)(F)F)c3)cc12 [Example 141]
Result: 217 to 218 °C

---

A collection of compounds and their measured melting point

Some solved cases for reference:
Cl.ON=c1cc(-c2cn3cccc3cn2)oc2ccc(OCCN3CCOCC3)cc12: > 250 °C (dec.)
ON=c1cc(-c2cc3ccccc3cn2)oc2c(Cl)cccc12: 270 to 272 °C

Ask: Please give the measured melting point for this compound: ON=c1cc(-c2cc3ccccc3cn2)oc2c(F)cc(F)cc12
Result: 253 to 256 °C

Ask: Using the record for Cl.ON=c1cc(-c2cc3cccn3cn2)oc2ccc(OCCN3CCCCC3)cc12 , report its melting point.
Result: > 255 °C (dec.)

Ask: What value of measured melting point is listed for COc1cc2cnc(-c3cc(=NO)c4ccccc4o3)cc2cc1OC ?
Result: 266 to 269 °C
